# Assay Explanation: VP16 transactivation reporter inhibitors, counter-screen for LRH-1 inverse agonist project, cell-based, luminescence, high throughput (AID 651615)
# Condition: Gal4-VP16 luciferase reporter cells, at 3.6 µM, stronger effect = higher value
Numbered stars: 1 amine (or outer) side, 2 acyl side, 3 side chain; on linkers, the order of the positions; unused ones are H or OH. Bridge positions count the residues as written; N and C are the ends. Square brackets hold non-standard residues; d marks the D form. Peptide text beside a SMILES is read from it. ξ: configuration not given here. X1 = CC[C@H](CCC[C@@H](O)[C@@H](C)C(=O)O[C@H](C)[C@@H](C)C/C=C(C)/C(=C\C(=O)[*:1])OC)O[*:2]; NMeξIle = CC[C@H](C)C(NC)C(=O)O; NMeV = CN[C@H](C(=O)O)C(C)C; NMeS = CN[C@@H](CO)C(=O)O
Measured inhibition accompanies every entry in the list below.
Experimental Readout: inhibition (%)

molecule=CCOc1cc(/C=N/n2nnnc2N)ccc1OCc1c(C)no[n+]1[O-] experimental_readout=inhibition assay_result=-7.92
molecule=O=C(N/N=C/c1cc2c3c(c1O)CCCN3CCC2)c1ccccc1O experimental_readout=inhibition assay_result=70.4
molecule="CCCC(=O)NC(c1ccccc1Cl)c1ccc2cccnc2c1O (stereo unspecified)" experimental_readout=inhibition assay_result=83.2
molecule=COc1ccccc1NC(=O)CN1CCN(CC(=O)Nc2ccc(S(N)(=O)=O)cc2)CC1 experimental_readout=inhibition assay_result=-15.6
molecule=CC(=O)N1CCN(c2ccc(NCc3ccc(C)cc3)cc2)CC1 experimental_readout=inhibition assay_result=1.11
molecule=Cc1cc(C)nc(NC(=O)c2ccc([N+](=O)[O-])o2)n1 experimental_readout=inhibition assay_result=-11.8
molecule="CC[C@@H]1CCC[C@@H](O)[C@@H](C)C(=O)O[C@H](C)[C@@H](C)C/C=C(C)/C(OC)=C\\C(=O)N(C)C([C@@H](C)CC)C(=O)N(C)[C@@H](C(C)C)C(=O)N(C)[C@@H](COC)C(=O)N2CCC[C@H]2C(=O)N(C)[C@@H](C(C)C)C(=O)N2CCC[C@H]2C(=O)O1 (stereo partly specified) ([NMeξIle][NMeV][NMeS](Me)P[NMeV]P; linker N-C via X1)" experimental_readout=inhibition assay_result=93.1
molecule=NC1=CC(=O)C(=O)c2cccnc21 experimental_readout=inhibition assay_result=8.35
molecule="O=C(N/N=C/c1ccc([N+](=O)[O-])s1)C(O)c1ccccc1 (stereo unspecified)" experimental_readout=inhibition assay_result=-11.9
molecule=COc1ccc(NC(=O)CN2C(=O)NC3(CCCC3)C2=O)cc1 experimental_readout=inhibition assay_result=-17.1
molecule=Cc1cccc(NC(=O)CSc2nc3[nH]ncc3c(=O)[nH]2)c1C experimental_readout=inhibition assay_result=-4.74
molecule=COc1ccc(NC(=O)CSc2ncnc3c2cnn3Cc2ccccc2)cc1 experimental_readout=inhibition assay_result=2.38
molecule=Nc1ccc(Oc2cccc(Oc3ccc(N)cc3)c2)cc1 experimental_readout=inhibition assay_result=47.5
molecule=Cc1ccc(S(=O)(=O)Oc2ccccc2/C=N/NC(N)=S)cc1 experimental_readout=inhibition assay_result=47.2
molecule="COc1ccc(NC(=O)C2Cc3c(-c4cccc(C(C)=O)c4)ccnc3O2)cc1OC (stereo unspecified)" experimental_readout=inhibition assay_result=48.8
molecule=Cc1cccc(-n2c(N)c(-c3nc4ccccc4n3C)c3nc4ccccc4nc32)c1 experimental_readout=inhibition assay_result=1.82
molecule="Cc1ccc2[nH]c3c(c2c1)CCCC3NC(=O)CCl (stereo unspecified)" experimental_readout=inhibition assay_result=92.3
molecule=COc1ccc(CCNC(=O)CSc2nc3[nH]c(=O)cc(O)c3s2)cc1 experimental_readout=inhibition assay_result=-3.78
molecule=C[C@@H](C(=O)Nc1ccc2c(c1)OCCO2)n1c(=O)[nH]c2ccccc2c1=O experimental_readout=inhibition assay_result=-18.1
molecule="COc1cccc(COC(=O)C2CC(=O)N(Cc3ccco3)C2)c1OC (stereo unspecified)" experimental_readout=inhibition assay_result=-7.19
molecule=O=C(CSc1nccc(=O)[nH]1)Nc1ccc(N2CCOCC2)cc1 experimental_readout=inhibition assay_result=-3.99
molecule=COc1cc(-c2cc(-c3ccc(O)cc3)nc(N)c2C#N)ccc1O experimental_readout=inhibition assay_result=-133
molecule=O=C(c1ccc([N+](=O)[O-])o1)N1CCN(c2nc3c(Cl)cccc3s2)CC1 experimental_readout=inhibition assay_result=3.24
molecule=CC(=O)Nc1ccc(NC(=O)COC(=O)Cc2c[nH]c3ccccc23)cc1 experimental_readout=inhibition assay_result=-15.3
molecule=O=C(N/N=C\c1ccc([N+](=O)[O-])s1)c1cncc(Br)c1 experimental_readout=inhibition assay_result=56.9
molecule=O=C(CSc1nnc(Cn2nnc3ccccc32)o1)N(Cc1ccc(F)cc1)c1ccccc1 experimental_readout=inhibition assay_result=56.9
molecule=O=C(Nc1nc2c(Cl)cccc2s1)c1ccc([N+](=O)[O-])o1 experimental_readout=inhibition assay_result=-6.76
molecule="CC(O)(c1cccc(F)c1)c1nc(-c2ccc(S(C)(=O)=O)cc2)cs1 (stereo unspecified)" experimental_readout=inhibition assay_result=-6.85
molecule=CC(=O)Nc1ccc(SCC(=O)c2cc(C)n(Cc3cccs3)c2C)cc1 experimental_readout=inhibition assay_result=-31.9
molecule=Cc1cc(OCC(=O)NC2CC2)c2c(C)c(C)c(=O)oc2c1 experimental_readout=inhibition assay_result=-21.9
molecule=Oc1c(Cl)cc(CN2CCOCC2)c2cccnc12 experimental_readout=inhibition assay_result=-5.55
molecule=O=C(COC(=O)c1ccc(Br)o1)Nc1ccc2c(c1)OCCO2 experimental_readout=inhibition assay_result=1.94
molecule=COCCNc1ncnc2c1ncn2[C@H]1CN(CCc2ccccc2)C[C@@H](CO)O1 experimental_readout=inhibition assay_result=3.57
molecule=COC(=O)c1ccc(N2CCCCC2)c(NC(=O)c2ccco2)c1 experimental_readout=inhibition assay_result=4.64
molecule=CN(C)c1ccc(NC(=O)CN2CCC(NC(=O)C3CCCCC3)CC2)cc1 experimental_readout=inhibition assay_result=-3.68
molecule=CCc1ccc(/C=C/c2c[nH]c3ccccc23)[n+](CC)c1 experimental_readout=inhibition assay_result=75.8
molecule=CCOc1ccc(NC(=O)COC(=O)c2ccc3c(c2)OCCO3)cc1 experimental_readout=inhibition assay_result=-12.9
molecule=O=C(Nc1ccccn1)c1ccc([N+](=O)[O-])o1 experimental_readout=inhibition assay_result=-16.1
molecule=CCc1cc(=O)oc2c(C)c(OCC(=O)NCCCN3CCCC3=O)ccc12 experimental_readout=inhibition assay_result=-11.3
molecule=COc1ccc(/C=N/NC(=O)c2cc(-c3ccc(C)cc3C)nc3ccccc23)cc1COC(C)=O experimental_readout=inhibition assay_result=-17.4
molecule=COc1ccc(NC(=O)COC(=O)/C=C/C(=O)OCC(=O)Nc2ccc(OC)c(Cl)c2)cc1Cl experimental_readout=inhibition assay_result=-16
